Kindly state IC50 for each of the entries shown.
# Test system: A549
# assay.info: Antiproliferative activity against human A549 cells assessed as inhibition of cell growth measured after 48 hrs by SRB assay
# Assay type: functional, cell-based
# measurement.context: A549, 48 h
Hi! Could you send only the number? It should be in µM, unit omitted.

In: Specify reported IC50 for the compound shown: C=CCOC(c1ccc(OC)c(OC)c1OC)c1cccc2ccccc12 (configuration not stated)
Out: 9.71

In: Specify reported IC50 for the compound shown: COc1cc([C@@H]2c3cc4c(cc3[C@H](O)[C@H]3COC(=O)[C@H]23)OCO4)cc(OC)c1OC [PODOFILOX]
Out: 7.34

In: Specify reported IC50 for the compound shown: COc1ccc(C(c2ccc(OCCN3CCCCC3)cc2)c2cccc3ccccc23)c(OC)c1OC (configuration not stated)
Out: 15

In: Specify reported IC50 for the compound shown: COc1ccc(/C(=N/OC(C)=O)c2cccc3ccccc23)c(OC)c1OC
Out: 17.2

In: Specify reported IC50 for the compound shown: COc1ccc(C(c2ccc(OCCN3CCCC3)cc2)c2cccc3ccccc23)c(OC)c1OC (configuration not stated)
Out: 15.8

In: Specify reported IC50 for the compound shown: COc1ccc(/C(=C/c2ccc(C)cc2)c2cccc3ccccc23)c(OC)c1OC
Out: 19.6

* * *

# Test system: THP-1
# assay.info: Antiproliferative activity against human THP-1 cells assessed as inhibition of cell growth measured after 48 hrs by SRB assay
# Assay type: functional, cell-based
# measurement.context: THP-1, 48 h
measured.attribute: IC50

In: Please report IC50 with THP-1 for item COc1ccc(/C(=N/O)c2cccc3ccccc23)c(OC)c1OC .
Out: > 20 µM

In: Please report IC50 with THP-1 for item COc1ccc(C(c2ccc(OCC(=O)O)cc2)c2cccc3ccccc23)c(OC)c1OC (stereo not given) .
Out: > 20 µM

In: Please report IC50 with THP-1 for item COc1ccc(C(OCc2ccc(C)cc2)c2cccc3ccccc23)c(OC)c1OC (stereo not given) .
Out: > 20 µM

In: Please report IC50 with THP-1 for item COc1ccc(C(OCCN(C)C)c2cccc3ccccc23)c(OC)c1OC (stereo not given) .
Out: > 20 µM

In: Please report IC50 with THP-1 for item COc1ccc(/C(=N/OC(C)=O)c2cccc3ccccc23)c(OC)c1OC .
Out: > 20 µM

In: Please report IC50 with THP-1 for item CCOC(=O)CCO/N=C(/c1ccc(OC)c(OC)c1OC)c1cccc2ccccc12 .
Out: > 20 µM

In: Please report IC50 with THP-1 for item COc1ccc(/C(=C/c2ccc(C)cc2)c2cccc3ccccc23)c(OC)c1OC .
Out: > 20 µM

In: Please report IC50 with THP-1 for item CC/C(=C(\c1ccccc1)c1ccc(OCCN(C)C)cc1)c1ccccc1 .
Out: 11.9 µM

In: Please report IC50 with THP-1 for item COc1ccc(C(c2ccc(O)cc2)c2cccc3ccccc23)c(OC)c1OC (stereo not given) .
Out: 9.45 µM

In: Please report IC50 with THP-1 for item COc1ccc(C(O)(Cc2ccccc2)c2cccc3ccccc23)c(OC)c1OC (stereo not given) .
Out: 12.4 µM

In: Please report IC50 with THP-1 for item CCOC(=O)/C=C/CO/N=C(/c1ccc(OC)c(OC)c1OC)c1cccc2ccccc12 .
Out: > 20 µM

In: Please report IC50 with THP-1 for item CCOC(=O)CO/N=C(/c1ccc(OC)c(OC)c1OC)c1cccc2ccccc12 .
Out: > 20 µM

In: Please report IC50 with THP-1 for item COc1ccc(C(c2ccc(OC(C)CN(C)C)cc2)c2cccc3ccccc23)c(OC)c1OC (stereo not given) .
Out: 15 µM

In: Please report IC50 with THP-1 for item COc1ccc(C(OCc2ccccc2)c2cccc3ccccc23)c(OC)c1OC (stereo not given) .
Out: > 20 µM

In: Please report IC50 with THP-1 for item C=CCOC(c1ccc(OC)c(OC)c1OC)c1cccc2ccccc12 (stereo not given) .
Out: > 20 µM
